For each entry below, report its EC50 value.
target: Human MOR (Homo sapiens); construct: expressed in transfected cells; host or cells: HEK-293T; test: cell-based; conditions: EC50, Human MOR
Sequence (P35372 whole entry): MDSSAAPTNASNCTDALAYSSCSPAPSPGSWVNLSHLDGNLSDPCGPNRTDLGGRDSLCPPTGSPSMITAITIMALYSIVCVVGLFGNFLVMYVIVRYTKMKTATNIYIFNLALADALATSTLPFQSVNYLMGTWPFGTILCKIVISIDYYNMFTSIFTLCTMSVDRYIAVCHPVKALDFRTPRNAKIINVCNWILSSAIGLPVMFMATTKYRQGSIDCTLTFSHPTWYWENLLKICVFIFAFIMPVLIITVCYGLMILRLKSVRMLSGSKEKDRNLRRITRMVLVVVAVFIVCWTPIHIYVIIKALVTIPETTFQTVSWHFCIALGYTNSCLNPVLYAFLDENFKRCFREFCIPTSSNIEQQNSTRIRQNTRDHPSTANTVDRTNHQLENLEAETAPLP

Request: What does the data say about its EC50? Entry: OCC1CC2CC3c4oc5ccc(O)cc5c4CCN(C2)C13 (stereo not drawn) [Compound 60g]
Result: > 10 µM

Request: Dear colleague, I am looking for the recorded EC50 of the following compound: CC[C@@H]1Cc2c(oc3ccc(O)cc23)C2CC3CCC2N1C3 (stereo partly drawn) [α-endo-60f]
Result: > 100 µM

Request: Find the recorded EC50 belonging to Oc1ccc2oc3c(c2c1)CCN1CC2CC(Cc4ccccc4)C1C3C2 (stereo not drawn) [Compound 60h] and report it.
Result: > 10 µM

Request: Which value of EC50 has been reported for CCC1CC2CC3c4oc5cccc(OC)c5c4CCN(C2)C13 (stereo not drawn) [Compound 51b] in the records?
Result: > 10 µM

Request: Please report the recorded EC50 for CCC1CC2(C)CC3c4oc5ccc(O)cc5c4CCN(C2)C13 (single isomer, unassigned) [Compound 60c] .
Result: < 10 µM

Request: # input compound: COCC1CC2CC3c4oc5ccc(OC)cc5c4CCN(C2)C13 (stereo not drawn) [Compound 59g] ; wanted: its EC50
Result: > 100 µM

Request: What value of EC50 has been recorded for this entry: CCC1CC2CC3c4oc5cc(C)c(OC)cc5c4CCN(C2)C13 (stereo not drawn) [Compound 51c]
Result: > 10 µM

Request: Which EC50 reading was recorded for the compound CC1C2CCC3C(C2)c2oc4ccc(O)cc4c2CCN13 (stereo not drawn) [Compound 60d] ?
Result: < 10 µM

Request: Reported EC50, compound CC[C@H]1Cc2c(oc3ccc(O)cc23)C2CC3CCC2N1C3 (stereo partly drawn) [α-exo-60f] : ____
Result: < 10 µM

###

molecular target: Human KOR (Homo sapiens, UniProt P41145); construct: expressed in transfected cells; host or cells: HEK-293T; test: cell-based; settings: EC50 at indicated opioid receptor, Human KOR
Sequence (P41145 whole entry): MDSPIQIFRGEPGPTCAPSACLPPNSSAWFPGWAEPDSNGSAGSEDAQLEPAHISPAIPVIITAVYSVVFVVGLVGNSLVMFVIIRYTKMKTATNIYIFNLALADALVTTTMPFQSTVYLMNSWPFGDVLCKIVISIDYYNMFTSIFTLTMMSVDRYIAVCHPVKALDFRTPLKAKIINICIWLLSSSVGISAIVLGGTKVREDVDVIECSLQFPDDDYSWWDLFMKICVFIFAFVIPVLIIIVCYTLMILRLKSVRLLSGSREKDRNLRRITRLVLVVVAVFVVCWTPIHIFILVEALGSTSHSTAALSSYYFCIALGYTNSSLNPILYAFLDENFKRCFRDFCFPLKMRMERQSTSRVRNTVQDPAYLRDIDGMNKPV
Provide the reported EC50 of each item.

Request: Need EC50, item CCCC1CC2CC3c4oc5ccc(O)cc5c4CCN(C2)C13 (centres unmarked) [Compound 35c]
Result: < 10 µM

Request: Name the reported EC50 value associated with the compound COc1ccc2oc3c(c2c1)CCN1CC2CCC1C3C2 (centres unmarked) [Compound 34h]
Result: > 10 µM

Request: Returns the measured EC50 for the input compound. Input: CCC1CC2CC3c4oc5cc(OC)ccc5c4CCN(C2)C13 (centres unmarked) [Compound 34k]
Result: < 10 µM

Request: Recorded EC50 for Oc1ccc2oc3c(c2c1)CCN1CC2CCC1C3C2 (centres unmarked) [Compound 35e] , please?
Result: < 10 µM

Request: What does the record list as EC50 for Oc1ccc2oc3c(c2c1)CCN1CC2CC(Cc4ccccc4)C1C3C2 (centres unmarked) [Compound 35g] ?
Result: < 10 µM

###

biological target: Human MOR (Homo sapiens); construct: expressed in transfected cells; host or cells: HEK-293T; assay: cell-based; conditions: EC50 at indicated opioid receptor, Human MOR
pEC50: −log10 of the molar value.
property-name: pEC50

Request: Which value of pEC50 has been reported for CCC1CC2CC3c4oc5ccc(O)cc5c4CCN(C2)C13 (stereo not drawn) [Compound 35a] in the records?
Result: > 5.00

Request: Fill in the blank: the reported pEC50 of CCC1CC2CC3c4sc5ccc(O)cc5c4CCN(C2)C13 (stereo not drawn) [Compound 35n] is ____.
Result: > 5.00

Request: Give the measured pEC50 of CCCCC1CC2CC3c4oc5ccc(OC)cc5c4CCN(C2)C13 (stereo not drawn) [Compound 34i] .
Result: < 5.00

Request: May I ask what pEC50 has been recorded for CCCC1CC2CC3c4oc5ccc(OC)cc5c4CCN(C2)C13 (stereo not drawn) [Compound 34f] ?
Result: < 4.00

Request: Tell me the measured pEC50 of CCC1CC2CC3c4oc5cc(F)c(OC)cc5c4CCN(C2)C13 (stereo not drawn) [Compound 34l] , please.
Result: < 4.00

Request: Suppose we examine the compound CCC1CC2CC3c4oc5ccc(F)cc5c4CCN(C2)C13 (stereo not drawn) [Compound 34j] ; what pEC50 value has been reported?
Result: < 5.00

Request: Look up pEC50: CCC1CC2CC3c4oc5ccc(OC)cc5c4CCN(C2)C13 (single isomer, unassigned) [Compound 34c]
Result: < 5.00

Request: Given the compound CCCC1CC2CC3c4oc5ccc(OC)cc5c4CCN(C2)C13 (stereo not drawn) [Compound 34e] , what is its reported pEC50?
Result: < 5.00

Request: Give its pEC50 value. Item: CCC1(CC)CC2CC3c4oc5ccc(O)cc5c4C[C@@H](C)N(C2)C31 (stereo partly drawn) [α-endo-52f]
Result: < 4.00

Request: Request the reported pEC50 associated with Oc1ccc2oc3c(c2c1)CCN1CC2CCC1C3C2 (stereo not drawn) [Compound 35e]
Result: > 5.00

Request: Name the recorded pEC50 for CCCCC1CC2CC3c4oc5ccc(O)cc5c4CCN(C2)C13 (stereo not drawn) [Compound 35h] .
Result: > 5.00

Request: Dear colleague, I am looking for the recorded pEC50 of the following compound: COCC1CC2CC3c4oc5ccc(OC)cc5c4CCN(C2)C13 (stereo not drawn) [Compound 34m]
Result: < 5.00
